Hello, the source for this data is ChEMBL document CHEMBL5131538, in case you need it.

TARGET OF ASSAY: UniProtKB P06536
Sequence (P06536 whole entry): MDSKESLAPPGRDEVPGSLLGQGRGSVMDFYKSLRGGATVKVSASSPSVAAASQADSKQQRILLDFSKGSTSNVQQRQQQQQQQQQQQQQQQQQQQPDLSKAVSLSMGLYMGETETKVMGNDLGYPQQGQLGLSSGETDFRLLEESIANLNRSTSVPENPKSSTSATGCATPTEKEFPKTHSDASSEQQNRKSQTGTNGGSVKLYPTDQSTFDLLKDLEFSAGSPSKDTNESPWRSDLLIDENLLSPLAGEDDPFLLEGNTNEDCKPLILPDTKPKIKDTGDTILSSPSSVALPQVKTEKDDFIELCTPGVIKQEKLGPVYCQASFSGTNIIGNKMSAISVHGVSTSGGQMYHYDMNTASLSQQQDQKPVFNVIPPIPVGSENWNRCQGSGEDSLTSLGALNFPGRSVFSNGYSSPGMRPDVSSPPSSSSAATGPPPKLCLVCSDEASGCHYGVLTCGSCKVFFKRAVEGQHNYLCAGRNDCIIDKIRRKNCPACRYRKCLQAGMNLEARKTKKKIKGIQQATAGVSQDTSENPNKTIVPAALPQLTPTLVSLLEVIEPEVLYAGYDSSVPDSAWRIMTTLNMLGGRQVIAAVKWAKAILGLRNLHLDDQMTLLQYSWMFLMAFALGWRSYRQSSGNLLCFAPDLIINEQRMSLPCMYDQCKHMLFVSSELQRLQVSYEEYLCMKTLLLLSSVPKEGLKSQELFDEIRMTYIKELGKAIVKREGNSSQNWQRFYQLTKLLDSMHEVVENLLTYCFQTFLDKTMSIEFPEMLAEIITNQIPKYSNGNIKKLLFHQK
PROPERTY LABEL: Ki (µM)

P = CS(=O)(=O)Nc1ccc2c(c1)OC(c1ccccc1)C(=O)N2c1ccc(F)cc1 (centres undefined)
Q = CCS(=O)(=O)Nc1ccc(C(C)(C)c2ccccc2)cc1
Ask: From the items above, decide which of P and Q has the lower Ki reading. Give the label of your selection.
Reply: Q

###

METHOD SUMMARY: Volume of distribution at steady state in Sprague-Dawley rat at 1 mg/kg, iv
Assay type: ADME, organism-based
REPORTED CONDITIONS: in vivo, read-out: Vdss
PROPERTY LABEL: Vd (L/kg)
Supply the numeric figure in L/kg, leaving out any unit text.

Short answer for "CC1(C)Oc2cc(NS(C)(=O)=O)ccc2N(c2ccc(F)cc2)C1=O" : Vd was 1.08

###

METHOD SUMMARY: AUC (0 to infinity) in Sprague-Dawley rat at 3 mg/kg, po
Assay type: ADME, organism-based
Design: time infinity, dose 3 mg/kg, route po
REPORTED CONDITIONS: in vivo
PROPERTY LABEL: AUC(0-inf) (ng·h/mL)
Form entry: value (ng·h/mL) — number only.

For reference, reported AUC(0-inf) for "CC1(C)Oc2cc(NS(C)(=O)=O)ccc2N(c2ccc(F)cc2)C1=O" stands at 25000

###

TARGET OF ASSAY: UniProt P06536
Sequence (P06536 whole entry): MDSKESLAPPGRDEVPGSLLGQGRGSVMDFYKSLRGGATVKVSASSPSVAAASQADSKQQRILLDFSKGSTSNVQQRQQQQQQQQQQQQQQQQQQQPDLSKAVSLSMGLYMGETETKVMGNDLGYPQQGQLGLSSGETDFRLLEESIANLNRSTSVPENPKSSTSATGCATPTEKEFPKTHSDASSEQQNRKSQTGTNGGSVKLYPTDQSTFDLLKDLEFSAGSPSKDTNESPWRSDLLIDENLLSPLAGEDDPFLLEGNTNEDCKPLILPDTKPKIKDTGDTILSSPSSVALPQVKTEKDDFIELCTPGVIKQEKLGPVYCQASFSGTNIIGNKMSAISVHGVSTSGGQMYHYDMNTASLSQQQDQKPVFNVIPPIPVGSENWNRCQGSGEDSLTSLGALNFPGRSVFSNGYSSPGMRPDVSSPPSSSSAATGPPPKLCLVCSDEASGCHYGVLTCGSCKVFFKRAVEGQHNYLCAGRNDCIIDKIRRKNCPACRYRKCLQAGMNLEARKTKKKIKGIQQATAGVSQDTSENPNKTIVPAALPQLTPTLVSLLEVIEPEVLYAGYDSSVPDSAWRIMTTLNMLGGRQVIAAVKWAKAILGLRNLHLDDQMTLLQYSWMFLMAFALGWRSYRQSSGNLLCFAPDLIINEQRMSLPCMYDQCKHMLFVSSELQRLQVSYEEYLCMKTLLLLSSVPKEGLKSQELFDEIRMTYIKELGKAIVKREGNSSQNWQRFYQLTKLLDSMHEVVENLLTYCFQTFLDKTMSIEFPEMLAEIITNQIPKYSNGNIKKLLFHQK
pKi: −log10 of the molar value.
PROPERTY LABEL: pKi

compound=CC(C)(c1ccccc1)c1cccc(NS(C)(=O)=O)c1 property_label=pKi reported_result=4.71

A = CC1Oc2cc(NS(C)(=O)=O)ccc2N(c2ccc(F)cc2)C1=O (stereo unspecified)
B = CS(=O)(=O)Nc1ccc(N(Cc2ccccc2)c2ccccc2)cc1
Ask: Pick the one with the larger pKi: A vs B Please indicate the selected item by its label.
Reply: B
(B: 4.54, A: 3.87)

###

METHOD SUMMARY: Oral bioavailability in Sprague-Dawley rat at 3 mg/kg
Format: ADME, organism-based
REPORTED CONDITIONS: in vivo
PROPERTY LABEL: bioavailability (%)
Numbers only; they are read as %.

The reported bioavailability of the compound "CC1(C)Oc2cc(NS(C)(=O)=O)ccc2N(c2ccc(F)cc2)C1=O" was 81.8

###

METHOD SUMMARY: Half life in Sprague-Dawley rat at 1 mg/kg, iv
Format: ADME, organism-based
REPORTED CONDITIONS: in vivo
PROPERTY LABEL: half-life (h)
A number alone suffices; assume h.

Given item "CC1(C)Oc2cc(NS(C)(=O)=O)ccc2N(c2ccc(F)cc2)C1=O" , the value recorded as its half-life is 8.59

###

TARGET OF ASSAY: Mineralocorticoid receptor (Homo sapiens)
Sequence (P08235 whole entry): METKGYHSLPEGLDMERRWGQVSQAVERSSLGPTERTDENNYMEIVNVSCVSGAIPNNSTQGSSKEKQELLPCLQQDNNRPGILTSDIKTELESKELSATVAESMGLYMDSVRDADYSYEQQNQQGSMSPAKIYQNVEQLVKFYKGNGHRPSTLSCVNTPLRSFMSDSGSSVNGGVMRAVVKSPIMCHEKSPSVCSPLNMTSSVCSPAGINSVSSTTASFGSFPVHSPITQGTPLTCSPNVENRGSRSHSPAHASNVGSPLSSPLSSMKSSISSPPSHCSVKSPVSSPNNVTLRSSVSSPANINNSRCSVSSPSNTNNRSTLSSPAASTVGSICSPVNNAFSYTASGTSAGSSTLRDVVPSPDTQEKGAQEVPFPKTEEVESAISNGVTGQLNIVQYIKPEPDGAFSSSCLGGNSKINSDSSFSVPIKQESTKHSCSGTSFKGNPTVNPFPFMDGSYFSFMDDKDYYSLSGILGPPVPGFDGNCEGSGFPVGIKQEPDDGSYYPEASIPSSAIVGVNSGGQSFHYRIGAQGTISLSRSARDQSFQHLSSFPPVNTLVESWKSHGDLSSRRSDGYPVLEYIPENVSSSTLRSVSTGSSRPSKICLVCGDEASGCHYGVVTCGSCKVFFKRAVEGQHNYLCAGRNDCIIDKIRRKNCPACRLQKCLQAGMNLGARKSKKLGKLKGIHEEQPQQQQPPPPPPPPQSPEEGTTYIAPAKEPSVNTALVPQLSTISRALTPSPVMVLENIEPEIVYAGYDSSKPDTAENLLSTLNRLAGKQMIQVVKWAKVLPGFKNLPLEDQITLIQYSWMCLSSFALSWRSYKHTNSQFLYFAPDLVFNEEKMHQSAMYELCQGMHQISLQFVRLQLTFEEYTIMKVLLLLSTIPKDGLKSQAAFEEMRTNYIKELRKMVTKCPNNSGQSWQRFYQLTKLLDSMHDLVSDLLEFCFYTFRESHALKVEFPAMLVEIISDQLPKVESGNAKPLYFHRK
PROPERTY LABEL: Ki (nM)

Some solved cases for reference:
structure_string=CNS(=O)(=O)c1ccc(C(C)(C)c2ccccc2)cc1 reported_result=1370
structure_string=CS(=O)(=O)Nc1ccc2c(c1)OC1(CC1)C(=O)N2c1ccc(F)cc1 reported_result=808

I = CN(c1ccccc1)c1ccc(NS(C)(=O)=O)cc1
II = CCS(=O)(=O)Nc1ccc(C(C)(C)c2ccccc2)cc1
III = CS(=O)(=O)Nc1ccc(N(C(=O)c2ccccc2)c2ccccc2)cc1
IV = CS(=O)(=O)Nc1ccc(N(Cc2ccccc2)c2ccccc2)cc1
Ask: Sort the 4 compounds by Ki; largest first, smallest last. Please reply with the labels ordered as requested. Many thanks.
Reply: II, III, I, IV
(II: 1920 nM, III: 1270 nM, I: 735 nM, IV: 147 nM)
